Assay: PAMPA permeability
Details: PAMPA
Entries and their Perm. (1 × 10^−6 cm/sec) values follow.

Compound: CC1=C(C(=O)Nc2ccc(O)cc2)C(c2ccccc2Cl)N=C(Nc2nc3ccccc3o2)N1 (stereo not shown)
Perm. (1 × 10^−6 cm/sec): <14.5 1 × 10^−6 cm/sec
--
Compound: CC1=C(C(=O)NCc2cnn(C(C)(C)C)c2)C(c2ccc(C)cc2Cl)N=C(Nc2nc3ccc(F)c(N)c3o2)N1 (stereo not shown)
Perm. (1 × 10^−6 cm/sec): 553.2 1 × 10^−6 cm/sec
--
Compound: CC1=C(C(=O)Nc2nncs2)C(c2ccc(Cl)cc2Cl)N=C(Nc2nc3ccccc3o2)N1 (stereo not shown)
Perm. (1 × 10^−6 cm/sec): <4.9 1 × 10^−6 cm/sec
--
Compound: COC(=O)c1cc(NC(=O)C2=C(C)NC(Nc3nc4ccccc4o3)=NC2c2ccccc2Cl)ccn1 (stereo not shown)
Perm. (1 × 10^−6 cm/sec): 49.2 1 × 10^−6 cm/sec
--
Compound: O=C(Nc1nncs1)C1=C(C(F)(F)F)NC(Nc2nc3ccccc3o2)=NC1c1ccccc1Cl (stereo not shown)
Perm. (1 × 10^−6 cm/sec): 715.1 1 × 10^−6 cm/sec
--
Compound: CC1=C(C(=O)Nc2nncs2)C(c2ncccc2Br)N=C(Nc2nc3ccccc3o2)N1 (stereo not shown)
Perm. (1 × 10^−6 cm/sec): 709.3 1 × 10^−6 cm/sec
--
Compound: CC1=C(C(=O)Nc2ccc(CO)nc2)C(c2ccccc2Cl)N=C(Nc2nc3ccccc3o2)N1 (stereo not shown)
Perm. (1 × 10^−6 cm/sec): 766.1 1 × 10^−6 cm/sec

---

Target: recombinant human GALK1 (Homo sapiens)
Sequence (P51570 whole entry): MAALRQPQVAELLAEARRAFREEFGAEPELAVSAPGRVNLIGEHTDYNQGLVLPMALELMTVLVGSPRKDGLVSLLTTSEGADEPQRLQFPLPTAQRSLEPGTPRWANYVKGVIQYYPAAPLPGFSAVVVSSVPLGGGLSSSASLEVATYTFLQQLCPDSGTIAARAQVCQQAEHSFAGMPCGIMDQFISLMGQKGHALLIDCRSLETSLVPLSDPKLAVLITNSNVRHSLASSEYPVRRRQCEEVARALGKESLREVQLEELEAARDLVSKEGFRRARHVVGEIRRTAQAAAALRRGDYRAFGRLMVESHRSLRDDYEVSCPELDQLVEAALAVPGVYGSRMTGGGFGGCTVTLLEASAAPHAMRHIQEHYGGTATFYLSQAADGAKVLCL
Experiment: hGALK1 biochemical activity assay (Kinase-Glo Plus, ATP depletion)
Conditions: recombinant human GALK1, Kinase-Glo Plus ATP depletion; read-out: hGALK

Compound: COC(=O)Cc1nnc(NC(=O)C2=C(C)NC(Nc3nc4ccccc4o3)=NC2c2ccccc2Cl)s1 (stereo not shown)
IC50 [µM]: 6.11
--
Compound: CC1=C(C(=O)Nc2cccc(CCO)c2)C(c2ccccc2Cl)N=C(Nc2nc3ccccc3o2)N1 (stereo not shown)
IC50 [µM]: 17.2
--
Compound: CCn1cc(CNC(=O)C2=C(C)NC(Nc3nc4ccc(F)c(N)c4o3)=N[C@@H]2c2ccc(C)cc2Cl)cn1
IC50 [µM]: 1.53
--
Compound: CC1=C(C(=O)NCc2cnn(C(C)(C)C)c2)C(c2ccc(C)cc2Cl)N=C(Nc2nc3ccc(F)c(N)c3o2)N1 (stereo not shown)
IC50 [µM]: 0.77
--
Compound: CCn1cc(CNC(=O)C2=C(C)NC(Nc3nc4ccc(F)c(N)c4o3)=N[C@H]2c2ccc(C)cc2Cl)cn1
IC50 [µM]: 0.07
--
Compound: CNC(=O)c1ccnc(NC(=O)C2=C(C)NC(Nc3nc4ccccc4o3)=NC2c2ccccc2Cl)c1 (stereo not shown)
IC50 [µM]: 3.06
--
Compound: CC1=C(C(=O)Nc2cc(C(=O)O)ccn2)C(c2ccccc2Cl)N=C(Nc2nc3c(F)cccc3o2)N1 (stereo not shown)
IC50 [µM]: 3.85

---

Target: recombinant human GALK1 (Homo sapiens)
Experiment: hGALK1 biochemical activity assay (Kinase-Glo Plus, ATP depletion)
Details: recombinant human GALK1, Kinase-Glo Plus ATP depletion; read-out: hGALK
Recorded Metric: IC50 (µM)

Molecule: COc1ccc([C@@H]2N=C(Nc3nc4cccc(N)c4o3)NC(C)=C2C(=O)Nc2cc(C(=O)O)ccn2)c(Cl)c1
Recorded Metric: IC50
Measured Number: 0.15
--
Molecule: CC1=C(C(=O)NCc2cnn(C)c2)[C@H](c2ccc(C)cc2Cl)N=C(Nc2nc3cccc(N)c3o2)N1
Recorded Metric: IC50
Measured Number: 0.13
--
Molecule: CNCCNC(=O)C1=C(C)NC(Nc2nc3ccc(F)cc3o2)=NC1c1ccccc1Cl (stereo not shown)
Recorded Metric: IC50
Measured Number: 15.3
--
Molecule: CC1=C(C(=O)Nc2cc(C(=O)O)ccn2)C(c2ccccc2Cl)N=C(Nc2nc3cccc(N)c3o2)N1 (racemic)
Recorded Metric: IC50
Measured Number: 0.22
--
Molecule: CC1=C(C(=O)Nc2cc(C(=O)O)ccn2)C(c2ccccc2Cl)N=C(Nc2nc3c(N)cccc3o2)N1 (stereo not shown)
Recorded Metric: IC50
Measured Number: 21.7
--
Molecule: CC1=C(C(=O)Nc2cc(C#N)ccn2)C(c2ccccc2Cl)N=C(Nc2nc3ccc(F)cc3o2)N1 (stereo not shown)
Recorded Metric: IC50
Measured Number: 4.32
--
Molecule: CC1=C(C(=O)NCc2cn(C)cn2)[C@H](c2ccccc2Cl)N=C(Nc2nc3ccccc3o2)N1
Recorded Metric: IC50
Measured Number: 3.06

---

Assay: aqueous kinetic solubility

Compound: COc1ccc2oc(NC3=NC(c4ccccc4Cl)C(C(=O)Nc4nnc(-c5cccnc5)s4)=C(C)N3)nc2c1 (stereo not drawn) [Compound 95]
Operator: <
Sol. / µg/mL: 1
--
Compound: CC1=C(C(=O)NCc2cnn(C)c2)C(c2ccccc2Cl)N=C(Nc2nc3ccc(F)cc3o2)N1 (stereo not drawn) [Compound 44]
Operator: =
Sol. / µg/mL: 13.7
--
Compound: CC1=C(C(=O)NCc2cnn(C)c2)C(c2ccc(C)cc2Cl)N=C(Nc2nc3ncccc3o2)N1 (stereo not drawn) [Compound 105]
Operator: >
Sol. / µg/mL: 49
--
Compound: COc1ccc2nc(NC3=NC(c4ccccc4Cl)C(C(=O)Nc4cc(C(=O)O)ccn4)=C(C)N3)oc2c1 (stereo not drawn) [Compound 7]
Operator: >
Sol. / µg/mL: 79
--
Compound: COc1ccc2nc(NC3=NC(c4ccccc4Cl)C(C(=O)Nc4nnc(-c5cccnc5)s4)=C(C)N3)oc2c1 (stereo not drawn) [Compound 93]
Operator: <
Sol. / µg/mL: 1
--
Compound: COC(=O)c1ccnc(NC(=O)C2=C(C)NC(Nc3nc4cccc(N)c4o3)=NC2c2ccc(C)cc2Cl)c1 (stereo not drawn) [Compound 91]
Operator: <
Sol. / µg/mL: 1
--
Compound: CC1=C(C(=O)Nc2cc(CO)ccn2)C(c2ccccc2Cl)N=C(Nc2nc3ccc(F)cc3o2)N1 (stereo not drawn) [Compound 37]
Operator: <
Sol. / µg/mL: 1
--
Compound: CC1=C(C(=O)NCc2cnn(C)c2)C(c2ccc(C)cc2Cl)N=C(Nc2nc3cccnc3o2)N1 (stereo not drawn) [Compound 107]
Operator: =
Sol. / µg/mL: 4.8
--
Compound: CC1=C(C(=O)Nc2cc(N(C)C)ccn2)C(c2ccc(C)cc2Cl)N=C(Nc2nc3ccc(F)cc3o2)N1 (stereo not drawn) [Compound 90]
Operator: =
Sol. / µg/mL: 6.2
--
Compound: CC1=C(C(=O)NCc2cnn(C)c2)C(c2ccc(C)cc2Cl)N=C(Nc2nc3cnccc3o2)N1 (stereo not drawn) [Compound 104]
Operator: >
Sol. / µg/mL: 49
--
Compound: CC1=C(C(=O)Nc2cc(C(=O)O)ccn2)[C@@H](c2ccccc2Cl)N=C(Nc2nc3ccc(F)cc3o2)N1 [Compound 20]
Operator: =
Sol. / µg/mL: 17.3
--
Compound: CC1=C(C(=O)Nc2cc(N(C)C)ccn2)C(c2ccc(C)cc2Cl)N=C(Nc2nc3cccc(N)c3o2)N1 (stereo not drawn) [Compound 89]
Operator: =
Sol. / µg/mL: 4.6
--
Compound: COc1ccc(C(=O)O)cc1NC(=O)C1=C(C)NC(Nc2nc3ccc(F)cc3o2)=NC1c1ccccc1Cl (stereo not drawn) [Compound 27]
Operator: =
Sol. / µg/mL: 53.3
--
Compound: CC1=C(C(=O)Nc2cc(C(=O)O)ccn2)C(c2ccc(Br)cc2Cl)N=C(Nc2nc3ccc(F)cc3o2)N1 (stereo not drawn) [Compound 62]
Operator: =
Sol. / µg/mL: 2.4
--
Compound: CC1=C(C(=O)NCc2c(C)nn(C)c2C)C(c2ccc(C)cc2Cl)N=C(Nc2nc3cccc(N)c3o2)N1 (stereo not drawn) [Compound 113]
Operator: =
Sol. / µg/mL: 12.0

---

Target: recombinant mouse GALK1 (Mus musculus, UniProt Q9R0N0)
Sequence (Q9R0N0 whole entry): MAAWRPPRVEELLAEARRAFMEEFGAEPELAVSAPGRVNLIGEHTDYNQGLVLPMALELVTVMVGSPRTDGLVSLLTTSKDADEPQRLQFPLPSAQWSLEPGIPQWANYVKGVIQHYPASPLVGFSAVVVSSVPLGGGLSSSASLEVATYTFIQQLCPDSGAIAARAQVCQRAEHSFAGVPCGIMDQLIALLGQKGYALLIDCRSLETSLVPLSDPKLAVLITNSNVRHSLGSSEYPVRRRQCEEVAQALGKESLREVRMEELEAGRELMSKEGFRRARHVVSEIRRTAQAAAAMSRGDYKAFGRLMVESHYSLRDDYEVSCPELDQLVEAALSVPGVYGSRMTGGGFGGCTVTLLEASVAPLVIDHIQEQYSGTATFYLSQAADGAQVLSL
Assay: mGALK1 biochemical activity assay (Kinase-Glo Plus, ATP depletion)
Settings: recombinant mouse GALK1, Kinase-Glo Plus ATP depletion; read-out: mGALK

Compound: COC(=O)c1ccnc(NC(=O)C2=C(C)NC(Nc3nc4ccc(F)cc4o3)=N[C@H]2c2ccccc2Cl)c1
IC50: 4.32 µM

Compound: CC1=C(C(=O)Nc2cc(C(=O)O)ccn2)C(c2ccc(N3CCCCC3)cc2Cl)N=C(Nc2nc3ccc(F)cc3o2)N1 (stereo not shown)
IC50: 12.2 µM

Compound: CC1=C(C(=O)NCc2cccc(CO)c2)C(c2ccccc2Cl)N=C(Nc2nc3ccccc3o2)N1 (stereo not shown)
IC50: 12.2 µM

Compound: CC1=C(C(=O)Nc2cc(C(=O)O)ccc2F)C(c2ccccc2Cl)N=C(Nc2nc3ccccc3o2)N1 (stereo not shown)
IC50: 10.9 µM
